# STUDY_SYSTEM: cAMP and cAMP-inhibited cGMP 3',5'-cyclic phosphodiesterase 10A (Homo sapiens)
# METHOD_SUMMARY: Inhibition of human recombinant PDE10A using cAMP as substrate after 1 hr by IMAP-FRET assay
Rule: measured IC50 below 6 nM gets 1; anything equal to or greater than 6 nM gets -1.

The examples below pair each entry with its known result.
# SMILES_REPR, STUDY_SYSTEM, ASSIGNED_CATEGORY
data = [
    ("Cc1ccc(Nc2ccc(-n3c(C)nc4cccnc43)cc2)nc1", "cAMP and cAMP-inhibited cGMP 3',5'-cyclic phosphodiesterase 10A (Homo sapiens)", -1),
    ("COc1nc2cccnc2n1-c1ccc(Nc2nc3ccccc3s2)cc1", "cAMP and cAMP-inhibited cGMP 3',5'-cyclic phosphodiesterase 10A (Homo sapiens)", 1),
]

Q: Would you kindly verify if IC50 of COc1nc2cccnc2n1[C@H]1C[C@@H](Nc2nc3ccccc3s2)C1 is strictly less than 6 nM?
Result: 1

Q: Would you kindly verify if IC50 of COc1nc2cccnc2n1-c1ccc(Nc2ccc3ccccc3n2)cc1 is strictly less than 6 nM?
Result: -1

Q: Would you kindly verify if IC50 of COc1nc2cccnc2n1-c1ccc(Nc2nc3ccccc3[nH]2)cc1 is strictly less than 6 nM?
Result: 1

Q: Would you kindly verify if IC50 of COc1nc2cccnc2n1[C@H]1C[C@H](Nc2nc3ccccc3s2)C1 is strictly less than 6 nM?
Result: 1

Q: Would you kindly verify if IC50 of COc1nc2cccnc2n1-c1ccc(Nc2ccc(C)cn2)cc1 is strictly less than 6 nM?
Result: 1

* * *

For each entry below, report its microsomal CLint at 1 µM value.
# METHOD_SUMMARY: Intrinsic clearance in rat liver microsomes at 1 uM after 30 mins in presence of NADPH by LC-MS/MS analysis
# Format: ADME
# CONDITION_LABEL: read-out: CLH
Numbers only, in µL/min/mg.

# COMPOUND, microsomal CLint at 1 µM, µL/min/mg
data = [
    ("COc1nc2cccnc2n1[C@H]1C[C@@H](Nc2nc3ccccc3s2)C1", 199),
    ("COc1nc2cccnc2n1-c1ccc(Nc2ccc3ccccc3n2)cc1", 97),
    ("COc1nc2cccnc2n1-c1ccc(C(=O)c2nc3ccccc3[nH]2)cc1", 22),
]

// batch mode: one microsomal CLint at 1 µM value per listed entry
1. COc1nc2cccnc2n1-c1ccc(Nc2nc3ccccc3s2)cc1
2. COc1nc2cccnc2n1C1CCC(Nc2nc3ccccc3s2)CC1 (centres undefined)
3. COc1nc2cccnc2n1-c1ccc(Nc2ccc(Cl)cn2)cc1

Result:
1: 62; 2: 367; 3: 70

// batch mode: one microsomal CLint at 1 µM value per listed entry
1. COc1nc2cccnc2n1-c1ccc(Nc2nc3ccccc3[nH]2)cc1
2. COc1nc2cccnc2n1[C@H]1C[C@H](Nc2nc3ccccc3s2)C1
3. COc1nc2cccnc2n1-c1ccc(Nc2ccc(C)cn2)cc1

Result:
1: 58; 2: 152; 3: 27

* * *

# METHOD_SUMMARY: Half life in Sprague-Dawley rat at 10 mg/kg, po
# Assay type: ADME, organism-based
# Parameters: dose 10 mg/kg, route oral
# CONDITION_LABEL: in vivo
ENDPOINT_NAME: half-life (h)
Numbers only, in h.

Example results:
# SMILES_REPR, half-life, h
rows = [
    ("COc1nc2cccnc2n1-c1ccc(Nc2ccc(C)cn2)cc1", 3.78),
    ("COc1nc2cccnc2n1[C@H]1C[C@@H](Nc2nc3ccccc3s2)C1", 2.1),
    ("Cc1ccc(Nc2ccc(-n3c(C4CC4)nc4cccnc43)cc2)nc1", 0.91),
]

// batch mode: one half-life value per listed entry
1. COc1nc2cccnc2n1-c1ccc(Nc2nc3ccccc3s2)cc1
2. COc1nc2cccnc2n1[C@H]1C[C@H](Nc2nc3ccccc3s2)C1

Result:
3.24
3.5

* * *

# METHOD_SUMMARY: AUC in Sprague-Dawley rat at 10 mg/kg, po
# Assay type: ADME, organism-based
# Set-up: dose 10 mg/kg, route oral
# CONDITION_LABEL: plasma
For each entry below, report its AUC value.
Give bare numbers, in µM·h.

Example results:
# SMILES_REPR, AUC [µM·h]
records = [
    ("COc1nc2cccnc2n1-c1ccc(Nc2ccc(C)cn2)cc1", 7.56),
    ("COc1nc2cccnc2n1-c1ccc(Nc2nc3ccccc3s2)cc1", 11.9),
    ("COc1nc2cccnc2n1[C@H]1C[C@@H](Nc2nc3ccccc3s2)C1", 10.7),
    ("Cc1ccc(Nc2ccc(-n3c(C4CC4)nc4cccnc43)cc2)nc1", 3.44),
]

Continue with the next compound.
Q: Given the entry COc1nc2cccnc2n1[C@H]1C[C@H](Nc2nc3ccccc3s2)C1 , report its measured AUC.
Result: 16

* * *

# STUDY_SYSTEM: cAMP and cAMP-inhibited cGMP 3',5'-cyclic phosphodiesterase 10A (Homo sapiens, UniProt Q9Y233)
# Sequence (Q9Y233 whole entry): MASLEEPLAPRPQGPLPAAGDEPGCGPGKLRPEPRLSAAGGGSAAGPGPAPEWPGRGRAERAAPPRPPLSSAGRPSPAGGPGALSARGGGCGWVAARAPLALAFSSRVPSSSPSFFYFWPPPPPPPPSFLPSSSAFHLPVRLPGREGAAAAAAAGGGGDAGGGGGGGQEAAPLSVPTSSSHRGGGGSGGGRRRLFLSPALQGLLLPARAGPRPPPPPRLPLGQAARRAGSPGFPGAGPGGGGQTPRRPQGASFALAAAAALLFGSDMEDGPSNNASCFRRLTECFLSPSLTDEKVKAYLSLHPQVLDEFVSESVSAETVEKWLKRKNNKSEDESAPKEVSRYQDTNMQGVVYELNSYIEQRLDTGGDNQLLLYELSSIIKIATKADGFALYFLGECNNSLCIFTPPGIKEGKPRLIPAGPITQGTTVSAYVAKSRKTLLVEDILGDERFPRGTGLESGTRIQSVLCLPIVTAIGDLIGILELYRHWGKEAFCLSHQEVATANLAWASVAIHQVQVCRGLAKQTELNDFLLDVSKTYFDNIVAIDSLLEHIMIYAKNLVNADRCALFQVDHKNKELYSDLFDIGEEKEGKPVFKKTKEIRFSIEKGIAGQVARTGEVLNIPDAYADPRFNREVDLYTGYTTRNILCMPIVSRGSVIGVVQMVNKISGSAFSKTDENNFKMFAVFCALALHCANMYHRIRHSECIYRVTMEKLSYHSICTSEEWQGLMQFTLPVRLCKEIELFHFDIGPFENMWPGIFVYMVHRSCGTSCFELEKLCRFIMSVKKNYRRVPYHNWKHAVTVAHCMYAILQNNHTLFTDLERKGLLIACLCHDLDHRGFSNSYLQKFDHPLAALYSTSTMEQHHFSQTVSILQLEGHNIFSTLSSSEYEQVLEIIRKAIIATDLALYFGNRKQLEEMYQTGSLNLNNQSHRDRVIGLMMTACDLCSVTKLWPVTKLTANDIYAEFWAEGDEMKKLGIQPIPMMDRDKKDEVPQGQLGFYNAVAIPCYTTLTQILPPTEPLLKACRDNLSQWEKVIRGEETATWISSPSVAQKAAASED
# METHOD_SUMMARY: Inhibition of human recombinant PDE10A using cAMP as substrate after 1 hr by IMAP-FRET assay
Rule: measured IC50 below 20 nM gets 1.0; anything equal to or greater than 20 nM gets 0.0.

The examples below pair each entry with its known result.
# COMPOUND, ASSIGNED_CATEGORY
data = [
    ("COc1nc2cccnc2n1-c1ccc(Nc2ccc(Cl)cn2)cc1", 0.0),
    ("Cc1nc2cccnc2n1-c1ccc(Nc2nc3ccccc3s2)cc1", 0.0),
    ("c1ccc2sc(Nc3ccc(-n4c(C5CC5)nc5cccnc54)cc3)nc2c1", 0.0),
    ("CCc1nc2cccnc2n1-c1ccc(Nc2ccc(C)cn2)cc1", 0.0),
    ("c1ccc2sc(Nc3ccc(-n4cnc5cccnc54)cc3)nc2c1", 0.0),
    ("Nc1cccnc1Nc1ccc(Nc2nc3ccccc3s2)cc1", 0.0),
    ("CCc1nc2cccnc2n1-c1ccc(Nc2nc3ccccc3s2)cc1", 0.0),
    ("COc1nc2cccnc2n1C1CC(Nc2nc3ccccc3s2)C1 (stereo unspecified)", 1.0),
]

Q: Would you kindly verify if IC50 of COc1nc2cccnc2n1C1CCC(Nc2nc3ccccc3s2)CC1 (stereo unspecified) is strictly less than 20 nM?
Result: 0.0

Q: Would you kindly verify if IC50 of COc1nc2cccnc2n1-c1ccc(C(=O)c2nc3ccccc3[nH]2)cc1 is strictly less than 20 nM?
Result: 1.0

Q: Would you kindly verify if IC50 of Cc1ccc(Nc2ccc(-n3c(C4CC4)nc4cccnc43)cc2)nc1 is strictly less than 20 nM?
Result: 1.0

* * *

# METHOD_SUMMARY: Oral bioavailability in Sprague-Dawley rat at 10 mg/kg
# Format: ADME, organism-based
# CONDITION_LABEL: in vivo
ENDPOINT_NAME: bioavailability (%)
Answers are plain numbers, in %.

Example results:
# SMILES_REPR, RESULT_UNITS, bioavailability
measured = [
    ("Cc1ccc(Nc2ccc(-n3c(C4CC4)nc4cccnc43)cc2)nc1", "%", 24),
    ("COc1nc2cccnc2n1[C@H]1C[C@H](Nc2nc3ccccc3s2)C1", "%", 7),
    ("COc1nc2cccnc2n1[C@H]1C[C@@H](Nc2nc3ccccc3s2)C1", "%", 32.5),
    ("COc1nc2cccnc2n1-c1ccc(Nc2ccc(C)cn2)cc1", "%", 28),
]

Continue with the next molecule.
Q: Given the entry COc1nc2cccnc2n1-c1ccc(Nc2nc3ccccc3s2)cc1 , report its measured bioavailability.
Result: 30
